Values compiled from the NIST ThermoML archive (doi:10.1021/je020131a).

Details: 298.15 K; 101.3 kPa; Liquid; Falling or rolling sphere viscometry
readoutKind: viscosity (mPa·s)

>>> quantitativeresult("CCCCCCC")
0.388
>>> quantitativeresult("COC(=O)OC [dimethyl carbonate]")
0.585

1. CCCCCCCC
2. CCOC(=O)OCC [diethyl carbonate]
3. CCCCCC
QUERY: Please list these in order of increasing viscosity. Thank you! Please reply with the labels ordered as requested. Many thanks.
RESULT: 3, 1, 2

###

Conditions: 303.15 K; 101.3 kPa; Liquid; Falling or rolling sphere viscometry
readoutKind: viscosity (mPa·s)

Worked set:
>>> quantitativeresult("COC(=O)OC [dimethyl carbonate]")
0.536
>>> quantitativeresult("CCCCCCCC")
0.484
>>> quantitativeresult("CCOC(=O)OCC [diethyl carbonate]")
0.699

a. CCCCCC
b. C1CCCCC1
QUERY: Which numeric viscosity is bigger, that of a or that of b ? Answer by quoting the chosen item's label.
RESULT: b
(b: 0.813 mPa·s, a: 0.282 mPa·s)
